The measured values listed here are drawn from patent US11339130B1.

# target_entity: Human Calpain 2/NS1 (Homo sapiens)
# Sequence (P17655 whole entry): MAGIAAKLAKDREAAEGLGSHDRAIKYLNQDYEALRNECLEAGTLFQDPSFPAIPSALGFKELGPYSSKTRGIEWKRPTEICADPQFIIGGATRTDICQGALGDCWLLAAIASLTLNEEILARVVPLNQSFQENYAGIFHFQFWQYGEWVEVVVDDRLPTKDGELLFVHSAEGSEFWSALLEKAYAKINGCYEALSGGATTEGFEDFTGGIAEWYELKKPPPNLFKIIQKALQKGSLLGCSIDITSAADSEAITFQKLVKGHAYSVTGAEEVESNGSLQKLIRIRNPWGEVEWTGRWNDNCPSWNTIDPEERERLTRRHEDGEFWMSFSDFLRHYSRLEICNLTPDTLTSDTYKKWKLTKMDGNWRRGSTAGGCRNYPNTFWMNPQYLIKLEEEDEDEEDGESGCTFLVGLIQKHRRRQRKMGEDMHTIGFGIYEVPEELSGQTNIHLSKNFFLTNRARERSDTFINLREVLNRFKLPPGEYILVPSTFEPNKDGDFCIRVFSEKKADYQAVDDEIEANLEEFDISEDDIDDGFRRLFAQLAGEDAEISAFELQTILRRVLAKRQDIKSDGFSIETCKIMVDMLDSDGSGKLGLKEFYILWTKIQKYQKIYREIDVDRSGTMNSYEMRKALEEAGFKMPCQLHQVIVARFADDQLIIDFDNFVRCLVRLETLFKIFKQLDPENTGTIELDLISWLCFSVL
# Sequence (P04632 whole entry partner): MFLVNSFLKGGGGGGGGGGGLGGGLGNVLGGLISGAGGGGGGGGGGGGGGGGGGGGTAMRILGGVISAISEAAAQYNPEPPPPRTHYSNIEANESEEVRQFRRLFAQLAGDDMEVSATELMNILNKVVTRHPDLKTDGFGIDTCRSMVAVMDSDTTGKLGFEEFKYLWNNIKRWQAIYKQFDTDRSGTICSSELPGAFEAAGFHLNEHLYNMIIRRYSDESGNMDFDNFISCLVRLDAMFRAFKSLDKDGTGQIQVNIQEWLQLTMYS
# assay_comment: Calpain inhibition continuous fluorescence (FRET) assay, Human Calpain 2/NS1
# Assay type: biochemical
# test_parameters: Column B; read-out: Human Calpain 2/NS1 IC50
quantity_name: IC50

Please review the entries below; each comes with its answer.
Item under review: `COc1ccc2nc(-n3nc(C)cc3C(=O)N[C@@H](Cc3ccccc3)C(=O)C(N)=O)sc2c1` . Reported IC50? 3 to 10 µM

Item under review: `Cn1cc(C(=O)N[C@@H](Cc2ccccc2)C(=O)C(N)=O)c(-c2cccc(OC(F)(F)F)c2)n1` . Reported IC50? < 3 µM

Further cases:
Item under review: `COc1cccc(-n2nc(C)cc2C(=O)N[C@@H](Cc2ccccc2)C(=O)C(N)=O)n1` . Reported IC50? < 3 µM

Item under review: `NC(=O)C(=O)[C@H](Cc1ccccc1)NC(=O)c1scnc1-n1ncc2ccccc21` . Reported IC50? < 3 µM

Item under review: `NC(=O)C(=O)[C@H](Cc1ccccc1)NC(=O)c1cncn1-c1ccn(-c2ccccc2)n1` . Reported IC50? < 3 µM

Item under review: `Cc1cc(C(=O)N[C@@H](Cc2ccccc2)C(=O)C(N)=O)n(-c2cccc(CNC(=O)CCc3ccccc3)c2)n1` . Reported IC50? < 3 µM

Item under review: `O=C(NC1CC1)C(=O)[C@H](Cc1ccccc1)NC(=O)c1cncn1-c1cc(-c2ncco2)ccn1` . Reported IC50? 3 to 10 µM
